Listed sequences paired with reported percent inhibition of TTC39B mRNA
tested on: murine TTC39B mRNA; test: Dose-dependent antisense inhibition of murine TTC39B in mouse primary hepatocytes (Example 3); format: cell-based; settings: 100.0 nM, cytofectin, ~16 h
Oligonucleotides are written 5' to 3', each unit as a sugar letter and its base; * is a phosphorothioate linkage, no mark a phosphodiester; rarer units and linkages stand in square brackets, end groups in braces. Plain capitals give the bases only. e = 2'-O-(2-methoxyethyl) (MOE); [5mC] = 5-methylcytosine; d = 2'-deoxy (DNA)

ORDERED_RESIDUES: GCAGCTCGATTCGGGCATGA (antisense eG*e[5mC]*eA*eG*e[5mC]*dT*d[5mC]*dG*dA*dT*dT*d[5mC]*dG*dG*dG*e[5mC]*eA*eT*eG*eA) [ISIS 447118]
percent inhibition of TTC39B mRNA / %: 77
--
ORDERED_RESIDUES: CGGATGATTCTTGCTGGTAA (antisense e[5mC]*eG*eG*eA*eT*dG*dA*dT*dT*d[5mC]*dT*dT*dG*d[5mC]*dT*eG*eG*eT*eA*eA) [ISIS 447114]
percent inhibition of TTC39B mRNA / %: 90
--
ORDERED_RESIDUES: TGTCAGTGACAGTGGCAGCT (antisense eT*eG*eT*e[5mC]*eA*dG*dT*dG*dA*d[5mC]*dA*dG*dT*dG*dG*e[5mC]*eA*eG*e[5mC]*eT) [ISIS 447159]
percent inhibition of TTC39B mRNA / %: 78
--
ORDERED_RESIDUES: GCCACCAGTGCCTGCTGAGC (antisense eG*e[5mC]*e[5mC]*eA*e[5mC]*d[5mC]*dA*dG*dT*dG*d[5mC]*d[5mC]*dT*dG*d[5mC]*eT*eG*eA*eG*e[5mC]) [ISIS 447143]
percent inhibition of TTC39B mRNA / %: 88

----------
Tested on: murine TTC39B mRNA
Assay: Antisense inhibition of murine TTC39B in mouse primary hepatocytes, single dose
Type: cell-based
Conditions: 100 nM, cytofectin, ~24 h, vs untreated control; gapmers targeted to SEQ ID NO: 6
Experimental: Antisense oligonucleotides targeted to a TTC39B nucleic acid were tested for their effects on TTC39B mRNA in vitro. […] After a treatment period of approximately 24 hours, RNA was isolated from the cells and TTC39B mRNA levels were measured by quantitative real-time PCR. TTC39B mRNA levels were adjusted according to total RNA content, as measured by RIBOGREEN®. […]
Oligonucleotides are written 5' to 3', each unit as a sugar letter and its base; * is a phosphorothioate linkage, no mark a phosphodiester; rarer units and linkages stand in square brackets, end groups in braces. Plain capitals give the bases only. e = 2'-O-(2-methoxyethyl) (MOE); [5mC] = 5-methylcytosine; d = 2'-deoxy (DNA)
READOUT_NAME: % inhibition of murine TTC39B mRNA (%)

ORDERED_RESIDUES: GTTCCGGATCAGTCCGTGGA (antisense eG*eT*eT*e[5mC]*e[5mC]*dG*dG*dA*dT*d[5mC]*dA*dG*dT*d[5mC]*d[5mC]*eG*eT*eG*eG*eA) [ISIS 447132]
READOUT_NAME: % inhibition of murine TTC39B mRNA
NUMERIC_VALUE: 58

ORDERED_RESIDUES: GACAGCCTGCAACACCACAA (antisense eG*eA*e[5mC]*eA*eG*d[5mC]*d[5mC]*dT*dG*d[5mC]*dA*dA*d[5mC]*dA*d[5mC]*e[5mC]*eA*e[5mC]*eA*eA) [ISIS 447105]
READOUT_NAME: % inhibition of murine TTC39B mRNA
NUMERIC_VALUE: 52

ORDERED_RESIDUES: GTTTTTCACTTTCCACAACG (antisense eG*eT*eT*eT*eT*dT*d[5mC]*dA*d[5mC]*dT*dT*dT*d[5mC]*d[5mC]*dA*e[5mC]*eA*eA*e[5mC]*eG) [ISIS 447128]
READOUT_NAME: % inhibition of murine TTC39B mRNA
NUMERIC_VALUE: 56

----------
Entries annotated with measured percent inhibition of TTC39A mRNA
test system: murine TTC39A mRNA; test: Dose-dependent antisense inhibition of murine TTC39A in b.END cells; type: cell-based, mouse; details: 140.0 nM, ~16 h
Oligonucleotides are written 5' to 3', each unit as a sugar letter and its base; * is a phosphorothioate linkage, no mark a phosphodiester; rarer units and linkages stand in square brackets, end groups in braces. Plain capitals give the bases only. e = 2'-O-(2-methoxyethyl) (MOE); [5mC] = 5-methylcytosine; d = 2'-deoxy (DNA)
READOUT_NAME: percent inhibition of TTC39A mRNA (%)

ORDERED_RESIDUES: TCCATGGAGTAGTTCTTGTA (eT*e[5mC]*e[5mC]*eA*eT*dG*dG*dA*dG*dT*dA*dG*dT*dT*d[5mC]*eT*eT*eG*eT*eA; antisense) [ISIS 474452]
DISPLAY_UNIT: %
NUMERIC_VALUE: 86

ORDERED_RESIDUES: CCGCACTTTGATGCCGCCCT (e[5mC]*e[5mC]*eG*e[5mC]*eA*d[5mC]*dT*dT*dT*dG*dA*dT*dG*d[5mC]*d[5mC]*eG*e[5mC]*e[5mC]*e[5mC]*eT; antisense) [ISIS 474435]
DISPLAY_UNIT: %
NUMERIC_VALUE: 76

ORDERED_RESIDUES: CACCTGGGTTTGAGGTAGCT (e[5mC]*eA*e[5mC]*e[5mC]*eT*dG*dG*dG*dT*dT*dT*dG*dA*dG*dG*eT*eA*eG*e[5mC]*eT; antisense) [ISIS 474498]
DISPLAY_UNIT: %
NUMERIC_VALUE: 80

ORDERED_RESIDUES: TGCACTGGTCCAGGGCCTCA (eT*eG*e[5mC]*eA*e[5mC]*dT*dG*dG*dT*d[5mC]*d[5mC]*dA*dG*dG*dG*e[5mC]*e[5mC]*eT*e[5mC]*eA; antisense) [ISIS 474351]
DISPLAY_UNIT: %
NUMERIC_VALUE: 84

ORDERED_RESIDUES: GCCTCAGAATCCTGGTGGGA (eG*e[5mC]*e[5mC]*eT*e[5mC]*dA*dG*dA*dA*dT*d[5mC]*d[5mC]*dT*dG*dG*eT*eG*eG*eG*eA; antisense) [ISIS 474437]
DISPLAY_UNIT: %
NUMERIC_VALUE: 82

----------
tested on: murine TTC39C mRNA; experiment: Dose-dependent antisense inhibition of murine TTC39C in mouse primary hepatocytes; type: cell-based; conditions: mouse primary hepatocytes, electroporation, ~16 h
Oligonucleotides are written 5' to 3', each unit as a sugar letter and its base; * is a phosphorothioate linkage, no mark a phosphodiester; rarer units and linkages stand in square brackets, end groups in braces. Plain capitals give the bases only. e = 2'-O-(2-methoxyethyl) (MOE); [5mC] = 5-methylcytosine; d = 2'-deoxy (DNA)
READOUT_NAME: IC50 (nM)

SUBSTANCE: ISIS 474600: 5-10-5 MOE gapmer antisense oligonucleotide targeting murine TTC39C (antisense e[5mC]*e[5mC]*eA*eA*eG*dG*dG*d[5mC]*dT*d[5mC]*dT*dT*d[5mC]*d[5mC]*dG*eT*e[5mC]*eA*eG*e[5mC])
EXPERIMENTAL_SYSTEM: murine TTC39C mRNA
READOUT_NAME: IC50
NUMERIC_VALUE: 600

SUBSTANCE: ISIS 474601: 5-10-5 MOE gapmer antisense oligonucleotide targeting murine TTC39C (antisense eG*eG*e[5mC]*e[5mC]*eA*dT*dA*dT*d[5mC]*d[5mC]*dA*dA*dA*dG*d[5mC]*eT*e[5mC]*eA*e[5mC]*eA)
EXPERIMENTAL_SYSTEM: murine TTC39C mRNA
READOUT_NAME: IC50
NUMERIC_VALUE: 1000

SUBSTANCE: ISIS 474596: 5-10-5 MOE gapmer antisense oligonucleotide targeting murine TTC39C (antisense e[5mC]*eG*eA*eT*eT*dA*d[5mC]*dA*d[5mC]*d[5mC]*dA*dG*d[5mC]*d[5mC]*dT*e[5mC]*eT*eT*e[5mC]*eA)
EXPERIMENTAL_SYSTEM: murine TTC39C mRNA
READOUT_NAME: IC50
NUMERIC_VALUE: 600

----------
test system: murine TTC39B mRNA; experiment: Antisense inhibition of murine TTC39B in mouse primary hepatocytes, single dose; type: cell-based; conditions: 100 nM, cytofectin, ~24 h, vs untreated control; gapmers targeted to SEQ ID NO: 10-14
Oligonucleotides are written 5' to 3', each unit as a sugar letter and its base; * is a phosphorothioate linkage, no mark a phosphodiester; rarer units and linkages stand in square brackets, end groups in braces. Plain capitals give the bases only. e = 2'-O-(2-methoxyethyl) (MOE); [5mC] = 5-methylcytosine; d = 2'-deoxy (DNA)

ORDERED_RESIDUES: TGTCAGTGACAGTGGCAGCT (antisense eT*eG*eT*e[5mC]*eA*dG*dT*dG*dA*d[5mC]*dA*dG*dT*dG*dG*e[5mC]*eA*eG*e[5mC]*eT) [ISIS 447159]
DISPLAY_UNIT: %
% inhibition of murine TTC39B mRNA: 71
--
ORDERED_RESIDUES: TGTCCGATGGAGATTGTTAA (antisense eT*eG*eT*e[5mC]*e[5mC]*dG*dA*dT*dG*dG*dA*dG*dA*dT*dT*eG*eT*eT*eA*eA) [ISIS 447164]
DISPLAY_UNIT: %
% inhibition of murine TTC39B mRNA: 0
--
ORDERED_RESIDUES: ACTCAGTCATACTTTTGGCA (antisense eA*e[5mC]*eT*e[5mC]*eA*dG*dT*d[5mC]*dA*dT*dA*d[5mC]*dT*dT*dT*eT*eG*eG*e[5mC]*eA) [ISIS 447168]
DISPLAY_UNIT: %
% inhibition of murine TTC39B mRNA: 35
--
ORDERED_RESIDUES: TCCGGTGCGCACCCAGTACC (antisense eT*e[5mC]*e[5mC]*eG*eG*dT*dG*d[5mC]*dG*d[5mC]*dA*d[5mC]*d[5mC]*d[5mC]*dA*eG*eT*eA*e[5mC]*e[5mC]) [ISIS 447155]
DISPLAY_UNIT: %
% inhibition of murine TTC39B mRNA: 23
--
ORDERED_RESIDUES: ATCATATTTTCATCCTGAAA (antisense eA*eT*e[5mC]*eA*eT*dA*dT*dT*dT*dT*d[5mC]*dA*dT*d[5mC]*d[5mC]*eT*eG*eA*eA*eA) [ISIS 447170]
DISPLAY_UNIT: %
% inhibition of murine TTC39B mRNA: 35
--
ORDERED_RESIDUES: TTCCAGCTCGGCTGCGCCAC (antisense eT*eT*e[5mC]*e[5mC]*eA*dG*d[5mC]*dT*d[5mC]*dG*dG*d[5mC]*dT*dG*d[5mC]*eG*e[5mC]*e[5mC]*eA*e[5mC]) [ISIS 447157]
DISPLAY_UNIT: %
% inhibition of murine TTC39B mRNA: 21
--
ORDERED_RESIDUES: AAAGAGGAGTCCTTCCTTAA (antisense eA*eA*eA*eG*eA*dG*dG*dA*dG*dT*d[5mC]*d[5mC]*dT*dT*d[5mC]*e[5mC]*eT*eT*eA*eA) [ISIS 447160]
DISPLAY_UNIT: %
% inhibition of murine TTC39B mRNA: 63
--
ORDERED_RESIDUES: GGTGCCCGGACCAGCCCGCT (antisense eG*eG*eT*eG*e[5mC]*d[5mC]*d[5mC]*dG*dG*dA*d[5mC]*d[5mC]*dA*dG*d[5mC]*e[5mC]*e[5mC]*eG*e[5mC]*eT) [ISIS 447158]
DISPLAY_UNIT: %
% inhibition of murine TTC39B mRNA: 39
--
ORDERED_RESIDUES: GCCCATGCACGGGTGGAGGA (antisense eG*e[5mC]*e[5mC]*e[5mC]*eA*dT*dG*d[5mC]*dA*d[5mC]*dG*dG*dG*dT*dG*eG*eA*eG*eG*eA) [ISIS 447156]
DISPLAY_UNIT: %
% inhibition of murine TTC39B mRNA: 16
--
ORDERED_RESIDUES: CGGAGATCAGTTTCTTCACT (antisense e[5mC]*eG*eG*eA*eG*dA*dT*d[5mC]*dA*dG*dT*dT*dT*d[5mC]*dT*eT*e[5mC]*eA*e[5mC]*eT) [ISIS 447165]
DISPLAY_UNIT: %
% inhibition of murine TTC39B mRNA: 50
--
ORDERED_RESIDUES: GGAGATGTGTGTACGGCAGC (antisense eG*eG*eA*eG*eA*dT*dG*dT*dG*dT*dG*dT*dA*d[5mC]*dG*eG*e[5mC]*eA*eG*e[5mC]) [ISIS 447161]
DISPLAY_UNIT: %
% inhibition of murine TTC39B mRNA: 14
--
ORDERED_RESIDUES: GAGATCAGTTTCTGATGAAA (antisense eG*eA*eG*eA*eT*d[5mC]*dA*dG*dT*dT*dT*d[5mC]*dT*dG*dA*eT*eG*eA*eA*eA) [ISIS 447169]
DISPLAY_UNIT: %
% inhibition of murine TTC39B mRNA: 67
--
ORDERED_RESIDUES: CCTTACCAAATTAAAGGCCC (antisense e[5mC]*e[5mC]*eT*eT*eA*d[5mC]*d[5mC]*dA*dA*dA*dT*dT*dA*dA*dA*eG*eG*e[5mC]*e[5mC]*e[5mC]) [ISIS 447171]
DISPLAY_UNIT: %
% inhibition of murine TTC39B mRNA: 23
--
ORDERED_RESIDUES: GTTTCTTGAGCCTATAAGTC (eG*eT*eT*eT*e[5mC]*dT*dT*dG*dA*dG*d[5mC]*d[5mC]*dT*dA*dT*eA*eA*eG*eT*e[5mC]; antisense) [ISIS 447172]
DISPLAY_UNIT: %
% inhibition of murine TTC39B mRNA: 54
--
ORDERED_RESIDUES: TATGGAGAAGCAGATGGCCT (eT*eA*eT*eG*eG*dA*dG*dA*dA*dG*d[5mC]*dA*dG*dA*dT*eG*eG*e[5mC]*e[5mC]*eT; antisense) [ISIS 447175]
DISPLAY_UNIT: %
% inhibition of murine TTC39B mRNA: 56
